# System: Wolbachia pipientis
# PROTOCOL_SUMMARY: Anti-Wolbachia Cell-Based Screen
# Assay type: functional
# Set-up: scale not given: in the data most compounds retested in dose-response had high values
# TEST_CONDITIONS: 5 µM
About 13,000 (27%) of roughly 48,000 compounds showed an effect of 50% or more. Some of the results follow.
# Percent Effect per entry
Quick reminder: number only, in %, skip the unit.

Input: If you can, please state the reported Percent Effect value of COc1ccccc1C(NC(=O)C1CCC1)c1noc(C)n1 (stereo not given) .
Output: -10.07

Input: Similarly, Cc1noc(C2CN(CC(=O)NCC3CCCO3)C2)n1 (stereo not given) ?
Output: 9.756

###

Reported Percent Effect values follow for various compounds
# Tested on: Wolbachia pipientis
# PROTOCOL_SUMMARY: Anti-Wolbachia Cell-Based Screen
# Format: functional
# Design: scale not given: in the data most compounds retested in dose-response had high values
# TEST_CONDITIONS: 5 µM
Screen size: about 48,000 compounds; about 13,000 (27%) showed an effect of 50% or more. Some of the results follow.
Could you give me the number in %? Just the number is fine.

Some solved cases for reference:
CCNC(=O)NC1CN(CC(=O)NCc2ccccc2C)C[C@@H]1OC (some centres undefined)	-0.1158
Cc1nn(C)c(C)c1OCC(=O)NCc1cccc(CO)c1	-2.193
O=C1NCc2ccccc2CC12CCN(Cc1ccccc1Cl)CC2	119.1

Next:
Input: Dear colleague, I am looking for the recorded Percent Effect of the following compound: Cc1nonc1CN(C)c1nc(-c2ccco2)nc2c1CCN(C)CC2
Output: 97.89

###

# Tested on: Wolbachia pipientis
# PROTOCOL_SUMMARY: Anti-Wolbachia Cell-Based Screen
# Type: functional
# Design: scale not given: in the data most compounds retested in dose-response had high values
# TEST_CONDITIONS: 5 µM
About 13,000 (27%) of roughly 48,000 compounds showed an effect of 50% or more. This is one part of the list.
MEASURED_QUANTITY: Percent Effect (%)
Use % as the unit, but write only the number.

Known results for compounds:
Cc1nc(C2CCN2c2ncccn2)cc(N(C)C)n1 (stereo not drawn)	87.93
CC1c2ncc(CNC(=O)C3CC3)n2CCN1Cc1ccncc1.O=C(O)C(F)(F)F.O=C(O)C(F)(F)F (stereo not drawn)	104.7
COc1ccccc1CN1CC[C@]2(C[C@H](OC)CO2)C1.O=C(O)C(F)(F)F	9.484
CC1c2ncc(CNC(=O)C3CC3)n2CCN1Cc1nccs1.O=C(O)C(F)(F)F (stereo not drawn)	120.4
CC(C)(C)CN1CCCC12Cc1ccccc1CNC2=O (stereo not drawn)	188

Input: Which measured Percent Effect value corresponds to CC(=O)N[C@@H]1Cc2ccccc2[C@H]1Nc1nnc(C2CC2)o1 ?
Output: -5.354

Input: Another: c1cncc(COCC2CN(Cc3ccsc3)Cc3ccnn3C2)c1 (stereo not drawn)
Output: -8.281

Input: Item: Cc1csc(CN2CCC[C@]3(C[C@H](OCC4CC4)CO3)C2)n1
Output: 94.91

###

# Tested on: Wolbachia pipientis
# PROTOCOL_SUMMARY: Anti-Wolbachia Cell-Based Screen
# Format: functional
# Design: scale not given: in the data most compounds retested in dose-response had high values
# TEST_CONDITIONS: 5 µM
Hit rate of the full screen: of about 48,000 compounds, about 13,000 (27%) showed an effect of 50% or more. Some of the results follow.
Reported Percent Effect values are given for each entry in this list.
Report as a plain number; the unit % is understood.

Below: 3 compounds and their reported Percent Effect.
CN(C)c1ncc(CN2CCC(c3nnsc3S(C)(=O)=O)CC2)cn1	-8.857
CS(=O)(=O)c1snnc1C1CCCN(Cc2ccncc2)C1 (centres undefined)	95.13
CCN(C)S(=O)(=O)N1CCC(C(O)c2ccc(F)cc2)CC1 (centres undefined)	-5.224

Input: # input compound: COC[C@H]1CNC(=O)[C@@H]2CCN(Cc3cccc(C)n3)CC[C@H]12 ; wanted: its Percent Effect
Output: -1.462
